assay explanation: Human HepG2 cell viability assay in 384 well format
Assay type: toxicity, cell-based
Parameters: dose 125 nL, time 70.5 hour; concentration not given beside the values
measurement setup: HepG2 cells, read-out: Inhibition
Catalogue of cytotoxicity at 70.5 h readings, one per entry.
Field format: number, assumed %, no unit text.

Input: Need cytotoxicity at 70.5 h of O=C(C1CCCO1)N1CCC(n2cc(-c3ccsc3)nn2)CC1 (centres undefined) , thanks.
Output: -13.3

---

assay explanation: Human HepG2 cell viability assay in 384 well format
Assay type: toxicity, cell-based
Parameters: dose 125 nL, time 70.5 hour; concentration not given beside the values
measurement setup: HepG2 cells, read-out: Inhibition
assay endpoint: cytotoxicity at 70.5 h (%)
Just the number please, in %, no unit attached.

Input: Please report the recorded cytotoxicity at 70.5 h for `CO[C@@H]1CCN(c2ncc(F)cn2)[C@@H]2CN(CC3CC3)C[C@@H]21` .
Output: -11.2

Input: Item O=C1CCC2(CCCN(C(=O)c3ccoc3)C2)CN1CCc1c[nH]cn1 (centres undefined) has what recorded cytotoxicity at 70.5 h?
Output: -4.81

Input: Can you share its cytotoxicity at 70.5 h? I mean this molecule: `CN1CCN(c2ccc3ccc(C(=O)N4CCCCO4)cn23)CC1`
Output: -6.94

Input: Given the molecule `O=C(CCn1c(C(F)(F)F)cc2cccnc21)N1CCC(O)CC1` , what is its reported cytotoxicity at 70.5 h?
Output: 2.54

Input: Look up cytotoxicity at 70.5 h: `Cc1cccc(NCc2nc(C)ccc2O)c1`
Output: -1.28

Input: Fill in the blank: the reported cytotoxicity at 70.5 h of `O=S(=O)(C1CC1)N1CC[C@]2(C[C@@H](OCC3CCOCC3)CO2)C1` is ____.
Output: -9.4

Input: # query: cytotoxicity at 70.5 h of entry `COc1ccc([C@@H]2CN(Cc3ccncc3)C[C@H]2c2cc[nH]n2)cc1`
Output: -7.91

Input: I would be grateful if you could share the reported cytotoxicity at 70.5 h for `CN1CCC(Cc2noc(CC3CC3)n2)CC1` .
Output: -7.67
